# assayed_system: epidermal growth factor acceptor-tyrosinekinase complex (Homo sapiens, UniProt P00533)
# Construct: endogenous in cells; host or cells: A-431 (membrane specimen, not solubilized)
# Sequence (P00533 25-1210): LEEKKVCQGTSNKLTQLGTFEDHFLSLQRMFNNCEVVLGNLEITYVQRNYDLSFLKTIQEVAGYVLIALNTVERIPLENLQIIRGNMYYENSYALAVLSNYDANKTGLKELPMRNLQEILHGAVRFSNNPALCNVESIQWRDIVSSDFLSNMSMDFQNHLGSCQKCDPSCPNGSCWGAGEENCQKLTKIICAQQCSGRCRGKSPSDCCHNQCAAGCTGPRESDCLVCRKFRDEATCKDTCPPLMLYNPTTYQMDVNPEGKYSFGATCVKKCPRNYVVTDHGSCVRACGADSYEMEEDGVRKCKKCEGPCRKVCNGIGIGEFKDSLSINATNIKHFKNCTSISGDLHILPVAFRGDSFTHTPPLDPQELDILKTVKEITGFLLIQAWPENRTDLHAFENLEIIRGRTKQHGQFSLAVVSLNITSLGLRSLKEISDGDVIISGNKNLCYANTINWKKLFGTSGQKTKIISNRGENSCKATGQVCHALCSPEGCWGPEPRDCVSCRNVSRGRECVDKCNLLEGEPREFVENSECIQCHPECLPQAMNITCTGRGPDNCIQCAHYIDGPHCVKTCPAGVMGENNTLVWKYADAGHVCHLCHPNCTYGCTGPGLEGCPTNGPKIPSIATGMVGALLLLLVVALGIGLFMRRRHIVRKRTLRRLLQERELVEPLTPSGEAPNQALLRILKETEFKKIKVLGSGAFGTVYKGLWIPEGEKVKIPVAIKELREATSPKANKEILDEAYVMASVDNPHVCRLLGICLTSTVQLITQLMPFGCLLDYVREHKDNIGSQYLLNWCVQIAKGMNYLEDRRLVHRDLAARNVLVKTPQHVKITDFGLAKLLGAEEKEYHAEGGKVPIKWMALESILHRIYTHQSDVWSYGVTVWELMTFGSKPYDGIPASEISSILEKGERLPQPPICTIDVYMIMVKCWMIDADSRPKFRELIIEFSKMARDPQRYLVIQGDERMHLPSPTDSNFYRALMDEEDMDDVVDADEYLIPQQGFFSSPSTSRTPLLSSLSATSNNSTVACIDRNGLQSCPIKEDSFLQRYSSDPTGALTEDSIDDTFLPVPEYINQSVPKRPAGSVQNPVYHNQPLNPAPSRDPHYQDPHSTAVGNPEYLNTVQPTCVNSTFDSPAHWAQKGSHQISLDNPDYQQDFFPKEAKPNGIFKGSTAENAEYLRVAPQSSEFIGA
# Sequence (P01132 977-1029 partner limits assumed): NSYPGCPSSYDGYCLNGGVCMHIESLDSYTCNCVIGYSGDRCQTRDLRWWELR
# method_summary: Tyrosinekinase inhibitory activity (A-431 membrane specimen, EGF-stimulated, [γ-32P]ATP)
# Assay type: biochemical, human (A-431 cell line derived from human cancerous cell)
# measurement_context: 10 μM; read-out: Inhibition rate (tyrosinekinase)
Entry flag: 1 (yes) if inhibition at 10 µM reaches 90%; 0 (no) if it does not.

A selection of reference data follows.
1. COc1cc(C=C2C(=O)NN(c3ccccc3)C2=O)cc(CSc2ccccc2)c1O	1 (yes)
2. CCOc1cc(C=C(C#N)C(N)=O)cc(CSc2ccc([N+](=O)[O-])cc2)c1O	0 (no)

Ask: Hello, I need to know if `CCOc1cc(C=C(C#N)C(N)=O)cc(CSc2ccc(OC)cc2)c1O` has measured inhibition at 10 µM not below 90%. Thanks!
Reply: 0 (no)

Ask: Quick check, inhibition at 10 µM >= 90%? `CCOc1cc(C=C2C(=O)NN(c3ccccc3)C2=O)cc(CSc2ccc(Br)cc2)c1O`
Reply: 0 (no)

Ask: Determine whether this molecule has inhibition at 10 µM no lower than 90%: `CCOc1cc(C=C(C#N)C(N)=O)cc(CSc2ccc(C)cc2)c1O`
Reply: 0 (no)

Ask: In plain terms: is recorded inhibition at 10 µM at least 90% for `CCOC(=O)C(=Cc1cc(CSc2ccc(C(C)(C)C)cc2)c(O)c(OCC)c1)S(C)(=O)=O` ?
Reply: 0 (no)

Ask: Given `N#CC(=Cc1cc(O)c(O)c(CSc2ccccc2)c1)C(N)=O` , state whether its inhibition at 10 µM is at least 90%.
Reply: 1 (yes)

Ask: Reported inhibition at 10 µM reaches at least 90% for `O=C1OCCC1=Cc1cc(O)c(O)c(CSc2ccc([N+](=O)[O-])cc2)c1` ?
Reply: 0 (no)

Ask: Given the entry `CCOc1cc(C=C2CCNC2=O)cc(CSc2ccccc2)c1O` , answer whether its inhibition at 10 µM meets or surpasses 90%.
Reply: 1 (yes)

Ask: # bool: inhibition at 10 µM of `CCOc1cc(C=C(C#N)C(N)=O)cc(CSc2ccc(C(C)(C)C)cc2)c1O` >= 90%
Reply: 0 (no)

Ask: Is the recorded value of inhibition at 10 µM equal to or greater than 90% for this molecule? `CCOc1cc(C=C2CCNC2=O)cc(CSc2ccccc2)c1OC(=O)c1ccccc1`
Reply: 0 (no)

Ask: Please check the record `CCOc1cc(C=C(C#N)C(N)=O)cc(CSc2c(Cl)cccc2Cl)c1O` and state if its inhibition at 10 µM is at or above 90%.
Reply: 0 (no)

The measurements presented in this section are drawn from patent US4853403A.
